Entries with reported pIC50 on UniProt Q969S8
Sequence (Q969S8 whole entry, species assumed): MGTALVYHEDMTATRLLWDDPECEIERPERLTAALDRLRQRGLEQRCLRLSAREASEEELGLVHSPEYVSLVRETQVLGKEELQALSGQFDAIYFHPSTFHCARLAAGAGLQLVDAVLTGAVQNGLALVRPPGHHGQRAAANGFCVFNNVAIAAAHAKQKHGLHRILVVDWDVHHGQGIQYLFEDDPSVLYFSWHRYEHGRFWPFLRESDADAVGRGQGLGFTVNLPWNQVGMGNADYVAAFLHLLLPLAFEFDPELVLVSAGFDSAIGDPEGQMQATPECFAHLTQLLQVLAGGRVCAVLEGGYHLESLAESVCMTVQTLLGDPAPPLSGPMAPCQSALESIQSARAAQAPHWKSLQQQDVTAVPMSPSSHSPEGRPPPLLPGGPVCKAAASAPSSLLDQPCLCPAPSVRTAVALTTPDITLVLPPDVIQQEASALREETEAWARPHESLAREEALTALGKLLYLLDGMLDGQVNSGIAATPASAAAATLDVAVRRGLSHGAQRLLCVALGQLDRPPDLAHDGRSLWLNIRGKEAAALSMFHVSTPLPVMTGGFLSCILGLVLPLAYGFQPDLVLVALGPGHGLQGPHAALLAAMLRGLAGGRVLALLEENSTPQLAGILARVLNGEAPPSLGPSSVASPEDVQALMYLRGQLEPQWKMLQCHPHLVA
pIC50: −log10 of the molar value.
ASSAY_READOUT: pIC50

[[record]]
molecule = "COc1ccc(/C=C/C(=O)NO)c(-c2ccc(Br)cc2)c1 [Compound 22b]"
assay_readout = "pIC50"
endpoint_result = "< 7.70"

[[record]]
molecule = "COc1ccc(/C=C/C(=O)NO)c(-c2ccc(-c3ccccc3)cc2)c1 [Compound 22d]"
assay_readout = "pIC50"
endpoint_result = "< 7.70"


###

Entries with reported IC50 on HDAC2 (Homo sapiens (Human))
Sequence (Q92769 whole entry, species assumed): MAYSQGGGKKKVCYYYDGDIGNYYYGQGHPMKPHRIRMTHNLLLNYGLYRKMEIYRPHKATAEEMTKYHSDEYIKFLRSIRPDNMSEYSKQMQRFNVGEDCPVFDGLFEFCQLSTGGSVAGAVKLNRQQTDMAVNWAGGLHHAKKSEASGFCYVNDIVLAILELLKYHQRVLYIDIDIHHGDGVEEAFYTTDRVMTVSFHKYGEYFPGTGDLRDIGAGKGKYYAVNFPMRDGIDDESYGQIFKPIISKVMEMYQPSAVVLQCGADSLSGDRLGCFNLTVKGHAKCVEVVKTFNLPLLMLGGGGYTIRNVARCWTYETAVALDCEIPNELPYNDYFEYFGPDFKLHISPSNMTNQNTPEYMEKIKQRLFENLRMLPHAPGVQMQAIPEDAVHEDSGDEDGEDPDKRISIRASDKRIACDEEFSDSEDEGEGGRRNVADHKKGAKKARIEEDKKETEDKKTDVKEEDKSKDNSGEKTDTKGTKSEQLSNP
ASSAY_READOUT: IC50

[[record]]
compound = "COc1ccc(/C=C/C(=O)NO)c(-c2ccc(-c3ccccc3)cc2)c1 [Compound 22d]"
endpoint_result = "> 20 nM"

[[record]]
compound = "COc1ccc(/C=C/C(=O)NO)c(-c2ccc(Br)cc2)c1 [Compound 22b]"
endpoint_result = "> 20 nM"

